- Tested on: LXRa:RXRa (NR concentration 270 nM, RXRa partner concentration 90 nM)
- Assay protocol: PBM binding z-score (relative to random genomic background probes); higher = stronger binding; sequences stand for … in GC…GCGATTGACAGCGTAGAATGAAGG
List of PBM binding z-score values.
Reported metric: PBM binding z-score

# Monomer sequence, Result
measured = [
    ("ATATGTAGGTTATCGGGCCATTCAGTTTGCGCAT", 1.03),
    ("TCATGTAGGTAAACAGGTGAAAGTCCGTAAGTTA", 0.537),
    ("CGGCCAAGGTCAGAGAGGTCAGTGAATGCCGAGT", 5.04),
    ("AGAACGAGGGCAATGAGTTGCTAGCACGGGTGGC", -0.027),
    ("CGAACTAGGTCATTGACCGGACAGTGAATAGTAA", 4.95),
    ("TCGAGTAGGTTATTCGGGGCATTCAGCCAACATA", 1.05),
]
